# subject of test: T1, Extracellular domain (ECD) of the canine IL-4 receptor alpha-V5 epitope-AviTag-His Tag (canine)
# T1 construct: monomeric form isolated by size exclusion; also called canine IL-4RA-V5-Avi-His; canine IL-4RA
# T1 chain: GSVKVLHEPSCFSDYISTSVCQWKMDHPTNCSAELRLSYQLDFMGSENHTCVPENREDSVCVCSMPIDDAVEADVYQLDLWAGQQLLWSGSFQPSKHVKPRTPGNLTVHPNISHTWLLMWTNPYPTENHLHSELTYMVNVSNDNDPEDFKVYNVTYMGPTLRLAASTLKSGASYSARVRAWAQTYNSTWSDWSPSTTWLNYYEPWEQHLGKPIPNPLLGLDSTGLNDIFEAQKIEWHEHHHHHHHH
# procedure text: SPR, Fab-SASA captured on BSA;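 also: biacore T200 SPR, Fab-SASA variants from E. coli conditioned medium captured on BSA-coated CM5 chip, canine IL-4RA injected 120 s then 420 s dissociation, 1:1 model fit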
Quick reference: Ratio WT-kd/clone-kd of the listed items.
Reply: number alone, nothing else.

[ask] Please look up its Ratio WT-kd/clone-kd: TB640_005 Fab-SASA VL-Q27L (Fab, V domains shown, not shown: SASA tag then His-tag) VH: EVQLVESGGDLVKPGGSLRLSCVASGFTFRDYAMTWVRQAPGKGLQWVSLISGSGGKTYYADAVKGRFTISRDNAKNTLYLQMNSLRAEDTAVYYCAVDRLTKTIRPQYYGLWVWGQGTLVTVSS VL: DIVMTQTPLSLSVSPGETASISCRSSLSLLYSIGYNYLDWYLQKPGQSPQGLIYLGSKRASGVPDRFSGSGSGTDFTLRISRVEANDTGVYYCMQGLQSPLTFGQGTKLEIKR
[reply] 0.96

[ask] Please do the same for TB640_005 Fab-SASA VL-A60M (Fab, V domains shown, not shown: SASA tag then His-tag) VH: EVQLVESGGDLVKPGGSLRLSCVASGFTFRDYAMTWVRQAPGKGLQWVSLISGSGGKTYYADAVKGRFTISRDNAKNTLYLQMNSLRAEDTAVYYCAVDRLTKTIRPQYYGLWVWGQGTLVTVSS VL: DIVMTQTPLSLSVSPGETASISCRSSQSLLYSIGYNYLDWYLQKPGQSPQGLIYLGSKRMSGVPDRFSGSGSGTDFTLRISRVEANDTGVYYCMQGLQSPLTFGQGTKLEIKR as well.
[reply] 1.12

[ask] What do you get for TB640_005 Fab-SASA VL-Q27H (Fab, V domains shown, not shown: SASA tag then His-tag) VH: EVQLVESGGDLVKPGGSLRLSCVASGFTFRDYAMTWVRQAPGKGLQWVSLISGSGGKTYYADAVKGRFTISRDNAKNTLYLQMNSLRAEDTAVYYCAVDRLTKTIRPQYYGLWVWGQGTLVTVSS VL: DIVMTQTPLSLSVSPGETASISCRSSHSLLYSIGYNYLDWYLQKPGQSPQGLIYLGSKRASGVPDRFSGSGSGTDFTLRISRVEANDTGVYYCMQGLQSPLTFGQGTKLEIKR ?
[reply] 0.97

[ask] Quick one: TB640_005 Fab-SASA VL-Y35M (Fab, V domains shown, not shown: SASA tag then His-tag) VH: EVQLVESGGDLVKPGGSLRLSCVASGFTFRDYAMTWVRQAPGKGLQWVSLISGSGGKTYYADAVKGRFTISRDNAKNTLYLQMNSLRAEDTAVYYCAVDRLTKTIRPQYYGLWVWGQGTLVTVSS VL: DIVMTQTPLSLSVSPGETASISCRSSQSLLYSIGMNYLDWYLQKPGQSPQGLIYLGSKRASGVPDRFSGSGSGTDFTLRISRVEANDTGVYYCMQGLQSPLTFGQGTKLEIKR
[reply] 1.02
